- Tested on: adherence of JY-8 cells (expressing LFA-1) to immobilized ICAM-1
- Method Notes: ICAM-1/JY-8 Cell Adhesion Assay
- Type: cell-based, human
- Details: Homo sapiens, JY-8, JY-8 cells on immobilized ICAM-1/Ig
pIC50: −log10 of the molar value.
Reported Property: pIC50

(a) CS(=O)(=O)N1CCN(C(=O)/C=C/c2ccc(Sc3ccc(Cl)cc3Cl)c([N+](=O)[O-])c2)CC1 [Example 39]
(b) CC(C)(C)OC(=O)N1CCN(C(=O)/C=C/c2ccc(Sc3ccc(Cl)cc3Cl)c([N+](=O)[O-])c2)CC1 [Example 37]
(c) O=C(/C=C/c1ccc(Sc2ccc(Cl)cc2Cl)c(Cl)c1)N(CCO)CCO [Example 5]
Hey, quick one: sort these by pIC50, low to high? Write the labels in rank order as requested. c, a, b
